# System: pBMC from patients with CLL
# Measurement description: Cytotoxicity of several antineoplastic agents on pBMC (LC90), fixed volume flow cytometry
# Type: cell-based, human
# Condition description: pBMC of CLL patient #25, ex vivo; in µg/mL
Doc: threshold 2 (exclusive). Items with LC90 beneath it return class 1; others return class 0.

# Compound, Group label
measured = [
    ("CC[C@]1(O)C[C@H]2CN(CCc3c([nH]c4ccccc34)[C@@](C(=O)OC)(c3cc4c(cc3OC)N(C=O)[C@H]3[C@@](O)(C(=O)OC)[C@H](OC(C)=O)[C@]5(CC)C=CCN6CC[C@]43[C@@H]65)C2)C1 [Oncovin ®, Vincristin]", "class 1"),
    ("C[C@]12C=CC(=O)C=C1CC[C@@H]1[C@@H]2[C@@H](O)C[C@@]2(C)[C@H]1CC[C@]2(O)C(=O)CO [Prednisolone ®, Prednisolone]", "class 1"),
    ("Nc1nc(F)nc2c1ncn2[C@@H]1O[C@H](COP(=O)(O)O)[C@@H](O)[C@@H]1O [Fludarabine phosphate]", "class 0"),
    ("O=C1c2c(O)ccc(O)c2C(=O)c2c(NCCNCCO)ccc(NCCNCCO)c21 [Novantrone ®, Mitoxantrone]", "class 1"),
]
